assay-system: Potassium voltage-gated channel subfamily KQT member 1 (Homo sapiens) (UniProt P51787)
Sequence (P51787 whole entry, looked up): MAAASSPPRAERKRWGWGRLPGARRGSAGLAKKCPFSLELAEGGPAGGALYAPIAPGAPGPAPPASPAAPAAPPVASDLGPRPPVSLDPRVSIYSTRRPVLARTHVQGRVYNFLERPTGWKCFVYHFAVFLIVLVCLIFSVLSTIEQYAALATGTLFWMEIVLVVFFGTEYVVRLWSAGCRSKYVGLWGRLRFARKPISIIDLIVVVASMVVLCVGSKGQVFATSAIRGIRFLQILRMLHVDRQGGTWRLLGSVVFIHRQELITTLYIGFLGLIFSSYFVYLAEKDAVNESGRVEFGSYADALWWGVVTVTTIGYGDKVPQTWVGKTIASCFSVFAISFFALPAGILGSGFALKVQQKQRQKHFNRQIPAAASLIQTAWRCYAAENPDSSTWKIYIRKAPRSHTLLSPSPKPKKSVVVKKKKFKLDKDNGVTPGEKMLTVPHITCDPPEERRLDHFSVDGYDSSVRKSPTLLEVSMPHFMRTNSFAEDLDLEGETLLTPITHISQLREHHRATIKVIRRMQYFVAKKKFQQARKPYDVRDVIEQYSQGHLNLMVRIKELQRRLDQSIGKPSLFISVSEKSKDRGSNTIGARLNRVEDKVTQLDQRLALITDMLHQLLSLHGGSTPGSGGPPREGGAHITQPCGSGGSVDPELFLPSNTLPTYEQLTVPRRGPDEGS
experiment-summary: inhibitors of human KCNQ1 channel, primary screen, cell-based, thallium flux, high-throughput (AID 2642);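 further: channel opened by potassium depolarization with thallium stimulus after 20 min compound exposure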
test-parameters: CHO-K1 KCNQ1, FluxOR thallium flux fluorescence, at 10 µM
In all, about 310,000 compounds went through this assay and about 3,900 (1.3%) were called active.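 How the source made its calls: active means compounds whose thallium flux B-score, printed positive for inhibition, exceeds three library SD while starting fluorescence stays within three; inactive means the rest.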 This is one part of a sample in which actives are shown more often than they occur.
Possible outcomes: active, inactive

>>> print(df.to_string())
                                    compound                              assay_system  class_assignment
 0     COC(=O)c1ccc(NC(=O)c2cc(Cl)ccc2OC)cc1  Potassium voltage-gated channel subfamily KQT member 1 (Homo sapiens) (UniProt P51787)          inactive
 1  COCn1c(C(O)c2ccccc2)cc2ccccc21 (stereo not drawn)  Potassium voltage-gated channel subfamily KQT member 1 (Homo sapiens) (UniProt P51787)          inactive
 2  N#Cc1c(/N=C/N2CCCC2)oc(-c2ccccc2)c1-c1ccccc1  Potassium voltage-gated channel subfamily KQT member 1 (Homo sapiens) (UniProt P51787)            active
 3  NC(=O)[C@H]1CC2(CC(c3cccc(NC(=O)[C@H]4CCC(=O)N4)c3)=NO2)CN1C(=O)c1ccccc1C(=O)c1ccccc1 (stereo partly drawn)  Potassium voltage-gated channel subfamily KQT member 1 (Homo sapiens) (UniProt P51787)          inactive
 4  COc1ccc(C2=NOC(Cn3nc(C(=O)NCc4ccc5c(c4)OCO5)cc3-c3ccccc3)C2)cc1 (stereo not drawn)  Potassium voltage-gated channel subfamily KQT member 1 (Homo sapiens) (UniProt P51787)          inactive
 5  O=C1c2ccccc2C(=O)c2c1cccc2N1CCN(C/C=C/c2ccccc2)CC1  Potassium voltage-gated channel subfamily KQT member 1 (Homo sapiens) (UniProt P51787)          inactive
 6  NS(=O)(=O)c1ccc(CCNC(=O)CNC(=O)Cc2ccccc2)cc1  Potassium voltage-gated channel subfamily KQT member 1 (Homo sapiens) (UniProt P51787)          inactive
 7  CCOc1ccc(CN(Cc2ccco2)S(=O)(=O)c2ccc(-n3cnnn3)c(OC)c2)cc1  Potassium voltage-gated channel subfamily KQT member 1 (Homo sapiens) (UniProt P51787)          inactive
 8  O=[N+]([O-])/C=C/c1ccc2c(ccn2Cc2ccccc2)c1  Potassium voltage-gated channel subfamily KQT member 1 (Homo sapiens) (UniProt P51787)          inactive
 9  COc1cc(C(C(=O)NC2CCCC2)N(Cc2ccccc2)C(=O)c2snc(C(N)=O)c2N)ccc1O (stereo not drawn)  Potassium voltage-gated channel subfamily KQT member 1 (Homo sapiens) (UniProt P51787)          inactive
10  CC(NC(=O)COC(=O)c1ccc2c(c1)OCO2)c1ccccc1 (stereo not drawn)  Potassium voltage-gated channel subfamily KQT member 1 (Homo sapiens) (UniProt P51787)          inactive
11       Cc1ccc(NC(=O)CC(=O)Nc2ccc(C)cc2)cc1  Potassium voltage-gated channel subfamily KQT member 1 (Homo sapiens) (UniProt P51787)          inactive
12  Cc1cc(C)n(-c2nnc(C)n2NC(=O)c2cccc(Cl)c2)n1  Potassium voltage-gated channel subfamily KQT member 1 (Homo sapiens) (UniProt P51787)          inactive
13   Cc1ccc(S(=O)(=O)N2CCC3(CC2)OCCO3)c(C)c1  Potassium voltage-gated channel subfamily KQT member 1 (Homo sapiens) (UniProt P51787)          inactive
14  CCOC(=O)CC1C(=O)NCCN1c1nc2c(C)cccn2c(=O)c1/C=C1\SC(=S)N(C(C)CC)C1=O (stereo not drawn)  Potassium voltage-gated channel subfamily KQT member 1 (Homo sapiens) (UniProt P51787)          inactive
15                   CCN1N=C(c2ccccc2)CCC1=O  Potassium voltage-gated channel subfamily KQT member 1 (Homo sapiens) (UniProt P51787)          inactive
16  COc1ccc(OC)c(CCNC(=O)CCn2ccc3cc(S(=O)(=O)N4CCCC4)ccc32)c1  Potassium voltage-gated channel subfamily KQT member 1 (Homo sapiens) (UniProt P51787)          inactive
17     c1ccc2c(c1)C(=NC1CCCCC1)NC2=NC1CCCCC1  Potassium voltage-gated channel subfamily KQT member 1 (Homo sapiens) (UniProt P51787)            active
18  CCOC(=O)CN(C(=O)COc1nc(C)cc(C)c1C#N)c1ccc(Cl)cc1  Potassium voltage-gated channel subfamily KQT member 1 (Homo sapiens) (UniProt P51787)          inactive
19  CCCN(CCC)c1nc2c(C)cccn2c(=O)c1/C=C1/SC(=S)N(Cc2ccco2)C1=O  Potassium voltage-gated channel subfamily KQT member 1 (Homo sapiens) (UniProt P51787)            active
20              Cc1ccc(OCCCCN2CCCCC2)c(Br)c1  Potassium voltage-gated channel subfamily KQT member 1 (Homo sapiens) (UniProt P51787)          inactive
21  Cc1c(NS(=O)(=O)c2ccc(NC3CCCC3)c([N+](=O)[O-])c2)c(=O)n(-c2ccccc2)n1C  Potassium voltage-gated channel subfamily KQT member 1 (Homo sapiens) (UniProt P51787)          inactive
22  c1ccc2c(NC3C4CC5CC(C4)CC3C5)nc(N3CCOCC3)nc2c1 (stereo not drawn)  Potassium voltage-gated channel subfamily KQT member 1 (Homo sapiens) (UniProt P51787)          inactive
23    CC(C)(CCl)C(=O)Nc1ccc(Sc2ccc(F)cc2)cc1  Potassium voltage-gated channel subfamily KQT member 1 (Homo sapiens) (UniProt P51787)            active
24  CCc1nc(N2CCN(C(C)=O)CC2)c2c3c(sc2n1)CCCC3  Potassium voltage-gated channel subfamily KQT member 1 (Homo sapiens) (UniProt P51787)          inactive
25               COc1ccccc1NC(=O)/C=C/C(N)=O  Potassium voltage-gated channel subfamily KQT member 1 (Homo sapiens) (UniProt P51787)          inactive
26       Cc1ccc2nc(C)c3c(c2c1)N(c1ccccc1)CC3  Potassium voltage-gated channel subfamily KQT member 1 (Homo sapiens) (UniProt P51787)            active
27  CCOc1ccc(-c2cc(C(=O)N/N=C/c3ccc(O)cc3)c3ccccc3n2)cc1  Potassium voltage-gated channel subfamily KQT member 1 (Homo sapiens) (UniProt P51787)          inactive
28      Cc1ccc2c(Cl)c(C(=O)Nc3nn[nH]n3)sc2c1  Potassium voltage-gated channel subfamily KQT member 1 (Homo sapiens) (UniProt P51787)          inactive
29  CCOc1ccc(CN(Cc2ccco2)C(c2cccs2)c2nnnn2C(C)(C)C)cc1 (stereo not drawn)  Potassium voltage-gated channel subfamily KQT member 1 (Homo sapiens) (UniProt P51787)            active
30                   N#Cc1ccc(CSc2ncccn2)cc1  Potassium voltage-gated channel subfamily KQT member 1 (Homo sapiens) (UniProt P51787)          inactive
31  CCc1nnc(NC(=O)CSc2nnc(Cc3ccccc3)n2-c2ccc(OC)cc2)s1  Potassium voltage-gated channel subfamily KQT member 1 (Homo sapiens) (UniProt P51787)            active
32     O=c1ccc2cc(S(=O)(=O)Nc3ccccc3F)ccc2o1  Potassium voltage-gated channel subfamily KQT member 1 (Homo sapiens) (UniProt P51787)          inactive
33  CCOC(=O)C1(Cc2ccccc2C(F)(F)F)CCN(C(=O)c2cc(C)n(C)n2)CC1  Potassium voltage-gated channel subfamily KQT member 1 (Homo sapiens) (UniProt P51787)          inactive
34       COC(=O)c1ccc(NC(=O)Nc2ccc(C)cc2)cc1  Potassium voltage-gated channel subfamily KQT member 1 (Homo sapiens) (UniProt P51787)            active
35  CCOC(=O)c1cccc(NC(=O)C2CCCN(S(=O)(=O)c3cnc[nH]3)C2)c1 (stereo not drawn)  Potassium voltage-gated channel subfamily KQT member 1 (Homo sapiens) (UniProt P51787)          inactive
36  N#CC1=C(SCc2ccccc2)NC(=O)C(C#N)C12CCCC2 (stereo not drawn)  Potassium voltage-gated channel subfamily KQT member 1 (Homo sapiens) (UniProt P51787)          inactive
37  CC(C)(C)n1nnnc1C(c1cccs1)N(Cc1cccnc1)CC1CCCO1 (stereo not drawn)  Potassium voltage-gated channel subfamily KQT member 1 (Homo sapiens) (UniProt P51787)          inactive
38  Cc1cc(C=O)c(C)n1-c1ccc(NC2CCCCC2)c([N+](=O)[O-])c1  Potassium voltage-gated channel subfamily KQT member 1 (Homo sapiens) (UniProt P51787)            active
39  O=C1c2ccccc2C(=O)c2c1cccc2N1CCN(Cc2ccccc2)CC1  Potassium voltage-gated channel subfamily KQT member 1 (Homo sapiens) (UniProt P51787)            active
40    CNc1nc2c(C)cccn2c(=O)c1C=Nc1ccc(OC)cc1  Potassium voltage-gated channel subfamily KQT member 1 (Homo sapiens) (UniProt P51787)          inactive
41    N#Cc1c(-c2ccccc2)c(-c2ccccc2)n[nH]c1=O  Potassium voltage-gated channel subfamily KQT member 1 (Homo sapiens) (UniProt P51787)          inactive
42  CSCCC(NS(=O)(=O)/C=C/c1ccccc1)C(=O)N1CCC(C)CC1 (stereo not drawn)  Potassium voltage-gated channel subfamily KQT member 1 (Homo sapiens) (UniProt P51787)          inactive

Reference for the values: PubChem BioAssay AID2642
